Test system: LXRb homodimer (NR concentration 270 nM)
MEASUREMENT DESCRIPTION: PBM binding z-score (relative to random genomic background probes); higher = stronger binding; sequences stand for … in GC…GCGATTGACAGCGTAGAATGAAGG
Reported PBM binding z-score values are given for each entry in this list.
Form field (numeric): enter value without unit.

# annotated cases, reported PBM binding z-score shown
1) GCTCGGAGGACAAGGTCCGAGCTTTGTCCGTAGA | -1.61
2) ATACCAAGGTGATCGTGAGGTCGTGGATACTAAC | -0.127

Indicate the recorded PBM binding z-score value for this sequence: `CTCGAAAGGTCGTGCTCAGGTGAGTGTACCAAAC`
0.22

Indicate the recorded PBM binding z-score value for this sequence: `TAGCCTAGGTCATTAAGGGGCCAGTATAGAAAGC`
0.552

Indicate the recorded PBM binding z-score value for this sequence: `TAAACAGGGTCAAAGGCCAGAGTACGAATGTCGA`
1.48

Indicate the recorded PBM binding z-score value for this sequence: `ACAGACAGGTGATGAAGGCAACTCAGGCTATCAT`
-0.333

* * *

Test system: THRa homodimer (NR concentration 90 nM)
MEASUREMENT DESCRIPTION: PBM binding z-score (relative to random genomic background probes); higher = stronger binding; sequences stand for … in GC…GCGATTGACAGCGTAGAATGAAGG
MEASURED ENDPOINT: PBM binding z-score
Form field (numeric): enter value without unit.

# annotated cases, reported PBM binding z-score shown
1) GCAGACTGGTGAAACGCAGGTAACTCAGGGTGGC | -0.648
2) GCGACTAGGGCATCAGCAGGTTACCATAACTTAA | 0.0227
3) CCGACTGGGGCAGAGGTTACCATACTCAGTACGA | 0.0259
4) GCTATTAGTTGAAAGGGCCACCGAATGATTCTCG | -0.402
5) ATATGTAGGTTAGCTGGGGTCATTCATACTAGGC | 3.63
6) ATACCAAGGTGATCGCGAGGTCGTTGATACTAAC | 1.61
7) GATACAGGGTCAGCTAGTGGCCAGAGTATGGAAA | 0.162
8) ATCTATAGGTAAAAGTTCAGTGAATCCCGAGGAT | -0.138
9) CGTCCAGGGTCAAAGGTCAGTGAAGAGATGACGG | 1.48
10) CCTTACGGGTCACTGACAGGTTATAGAATTTGGA | 0.45

Indicate the recorded PBM binding z-score value for this sequence: `TCTTGTATATCAATAGAGGTTAAGAAAGTGCGCT`
-0.0174

Indicate the recorded PBM binding z-score value for this sequence: `TCAATTAGTTGAAGGGCAACCGACGAGTCCGTTT`
-0.267

Indicate the recorded PBM binding z-score value for this sequence: `CTACCAAGGTGAACAAGGTCATTGATTACTATTC`
3.41

* * *

Tested on: PPARg:RXRa 270nM:90nM, anti-RXR (NR concentration 270 nM, RXRa partner concentration 90 nM)
MEASUREMENT DESCRIPTION: PBM binding z-score (relative to random genomic background probes); higher = stronger binding; sequences stand for … in GC…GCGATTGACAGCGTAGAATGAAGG
Reported PBM binding z-score values are given for each entry in this list.

# annotated cases, reported PBM binding z-score shown
1) TCAGACAGGTGAAGGTAACTCACGTACGCAGTCG | 2.09
2) TCTATTAGTTGTAGGGCAACCGACGAGTCCGTTT | 1.78
3) ATCTCAAGGTAAAAGTTCAGTGAATCCCGAGGAT | 4.49

Indicate the recorded PBM binding z-score value for this sequence: `GCTATCAGTTGAAAGGGCAACCGAATGATTCTCG`
2.77

Indicate the recorded PBM binding z-score value for this sequence: `GGAACGAGGGCAAAGTTGATAGTATCTGTCGACG`
7.32

Indicate the recorded PBM binding z-score value for this sequence: `CCGACTGGGGCAAAGGTTACCATCCTCAGTACGA`
9.37

Indicate the recorded PBM binding z-score value for this sequence: `AGTATGAGGTTATACGTAGATCAGGGAAGAAAGT`
1.2
